species on record: Rattus norvegicus; test: Antidiuretic activity in rats and pA2 value is negative logarithm of effective dose (ED); assay type: functional, organism-based; details: Urine, read-out: pA2 (converted)
Assignment: determine reported Kb for the given molecules.
Field: numeric (nM). Do not append units.

QUERY: // query Kb value for entry "CC[C@@H](C)[C@H]1NC(=O)CC2(CCCCC2)SSC[C@@H](C(=O)N2CCC[C@H]2C(=O)N[C@@H](CCCN=C(N)N)C(=O)NCC(N)=O)NC(=O)[C@H](CC(N)=O)NC(=O)[C@H]([C@@H](C)O)NC(=O)[C@H](Cc2ccccc2)NC1=O"
RESULT: 12.3

QUERY: // query Kb value for entry "CC[C@@H](C)[C@H]1NC(=O)CC2(CCCCC2)SSC[C@@H](C(=O)N2CCC[C@H]2C(=O)N[C@@H](CCCN=C(N)N)C(=O)NCC(N)=O)NC(=O)[C@H](CC(N)=O)NC(=O)[C@H](C)NC(=O)[C@H](Cc2ccccc2)NC1=O"
RESULT: 17.4

QUERY: // query Kb value for entry "CCC[C@@H]1NC(=O)[C@H](Cc2ccccc2)NC(=O)[C@@H]([C@H](C)CC)NC(=O)CC2(CCCCC2)SSC[C@@H](C(=O)N2CCC[C@H]2C(=O)N[C@@H](CCCN=C(N)N)C(=O)NCC(N)=O)NC(=O)[C@H](CC(N)=O)NC1=O"
RESULT: 97.7

QUERY: // query Kb value for entry "CC[C@@H](C)[C@H]1NC(=O)CC2(CCCCC2)SSC[C@@H](C(=O)N2CCC[C@H]2C(=O)N[C@@H](CCCN=C(N)N)C(=O)NCC(N)=O)NC(=O)[C@H](CC(N)=O)NC(=O)[C@H](CC2CCCCC2)NC(=O)[C@H](Cc2ccccc2)NC1=O"
RESULT: 229
